Target: Pseudomonas aeruginosa LpxC enzyme (Pseudomonas aeruginosa, UniProt P47205)
Construct: made in house; host or cells: E. coli
Sequence (P47205 whole entry): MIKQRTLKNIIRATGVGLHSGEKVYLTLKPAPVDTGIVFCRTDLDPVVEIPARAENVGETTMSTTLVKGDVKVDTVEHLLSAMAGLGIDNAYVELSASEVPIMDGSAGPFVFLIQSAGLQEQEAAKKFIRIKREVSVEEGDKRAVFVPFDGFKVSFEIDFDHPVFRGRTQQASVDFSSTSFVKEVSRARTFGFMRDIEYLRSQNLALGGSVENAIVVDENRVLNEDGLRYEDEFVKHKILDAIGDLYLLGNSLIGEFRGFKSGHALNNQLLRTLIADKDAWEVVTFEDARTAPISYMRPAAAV
Assay: IC50 assay, LpxC enzyme from P. aeruginosa (PA LpxC enzyme IC50)
Format: biochemical
Conditions: Table 3; LpxC enzyme 0.1 nM, 25° C., 1 hour; read-out: PA:IC50
I'd be grateful if you could share measured IC50 for these entries.

Solved cases (10 shown):
[[record]]
compound = "Cn1cnc2cc(-c3cc(=O)n(CCC(C)(C(=O)NO)S(C)(=O)=O)cc3F)cnc21 (centres unmarked)"
assay_result = "> 100 nM"

[[record]]
compound = "CC(CCn1cc(F)c(-c2cccnc2)cc1=O)(C(=O)NO)S(C)(=O)=O (centres unmarked)"
assay_result = "82.3 nM"

[[record]]
compound = "CC(CCn1cc(F)c(-c2ccc(Cl)c(O)c2)cc1=O)(C(=O)NO)S(C)(=O)=O (centres unmarked)"
assay_result = "7.3 nM"

[[record]]
compound = "CC(CCn1cc(F)c(-c2ccc(F)cc2)cc1=O)(C(=O)NO)S(C)(=O)=O (centres unmarked)"
assay_result = "1.7 nM"

[[record]]
compound = "CCOc1cccc(-c2cc(=O)n(CCC(C)(C(=O)NO)S(C)(=O)=O)cc2F)c1 (centres unmarked)"
assay_result = "3.1 nM"

[[record]]
compound = "CC(CCn1cc(F)c(-c2ccc(Cl)cc2F)cc1=O)(C(=O)NO)S(C)(=O)=O (centres unmarked)"
assay_result = "0.8 nM"

[[record]]
compound = "CNC(=O)c1ccc(-c2cc(=O)n(CCC(C)(C(=O)NO)S(C)(=O)=O)cc2F)cc1F (centres unmarked)"
assay_result = "2.2 nM"

[[record]]
compound = "CC(CCn1cc(F)c(-c2cnc3ccoc3c2)cc1=O)(C(=O)NO)S(C)(=O)=O (centres unmarked)"
assay_result = "34.8 nM"

[[record]]
compound = "COc1cc(-c2cc(=O)n(CCC(C)(C(=O)NO)S(C)(=O)=O)cc2F)cnc1OC (centres unmarked)"
assay_result = "45.4 nM"

[[record]]
compound = "CCOc1ccc(-c2cc(=O)n(CCC(C)(C(=O)NO)S(C)(=O)=O)cc2F)cc1 (centres unmarked)"
assay_result = "1.1 nM"


Please supply IC50 for each of the following items, keeping them in order.
1. COc1cc(-c2cc(=O)n(CCC(C)(C(=O)NO)S(C)(=O)=O)cc2F)ccc1F (centres unmarked)
2. CC(CCn1cc(F)c(-c2ccc(C#N)c(F)c2)cc1=O)(C(=O)NO)S(C)(=O)=O (centres unmarked)
3. CC(CCn1cc(F)c(-c2ccc(C#N)nc2)cc1=O)(C(=O)NO)S(C)(=O)=O (centres unmarked)
4. CC(CCn1cc(F)c(-c2ccc(Cl)cn2)cc1=O)(C(=O)NO)S(C)(=O)=O (centres unmarked)
5. CC(CCn1cc(F)c(-c2ccc(CC#N)cc2)cc1=O)(C(=O)NO)S(C)(=O)=O (centres unmarked)

1: 4.5 nM; 2: 2.6 nM; 3: 33.3 nM; 4: 12.5 nM; 5: 2.3 nM

Please supply IC50 for each of the following items, keeping them in order.
1. CC(CCn1cc(F)c(-c2cnc3ccccc3c2)cc1=O)(C(=O)NO)S(C)(=O)=O (centres unmarked)
2. COc1cc(-c2cc(=O)n(CCC(C)(C(=O)NO)S(C)(=O)=O)cc2F)ccc1C#N (centres unmarked)

["6.1 nM", "5.9 nM"]

Where do the numbers come from? From patent US8624034B2.
